test-target: HLA-B*15:17
assay-text: IEDB peptide-MHC binding, purified MHC/competitive/fluorescence; filed as Kd, often an IC50 or EC50 that approximates it; bounds were set here for any values at or beyond the usual limits of such assays
setup-conditions: source organism: Bacillus anthracis str. A0488
pKd: −log10 of the molar value.
endpoint-label: pKd

Entry SYMLQGLRK , tested on HLA-B*15:17, has a reported pKd of ≤ 4.70

* * *

test-target: HLA-A*03:01
assay-text: IEDB peptide-MHC binding, purified MHC/direct/fluorescence; filed as Kd, often an IC50 or EC50 that approximates it; bounds were set here for any values at or beyond the usual limits of such assays
setup-conditions: source organism: Escherichia coli O6
endpoint-label: Kd (µM)
Response body: numeric value in µM, unit text excluded.

Kd reported for this sequence KTTLFHTFK : 0.122

* * *

Record form. Attribute: Kd. Fill in for each entry.
test-target: HLA-A*03:01
assay-text: IEDB peptide-MHC binding, purified MHC/direct/fluorescence; filed as Kd, often an IC50 or EC50 that approximates it; bounds were set here for any values at or beyond the usual limits of such assays
setup-conditions: source organism: SARS-CoV1
Lab note: write values as number then unit, every time.

Kd reported for this sequence CADGTRHTY : 9.67 µM

Kd reported for this sequence RHYSASFKK : 0.341 µM

* * *

test-target: HLA-B*44:02
assay-text: IEDB peptide-MHC binding, purified MHC/competitive/radioactivity; filed as Kd, often an IC50 or EC50 that approximates it; bounds were set here for any values at or beyond the usual limits of such assays
setup-conditions: source organism: Mammarenavirus brazilense
endpoint-label: Kd

Entry SDHLLSEML , tested on HLA-B*44:02, has a reported Kd of ≥ 26.9 µM

* * *

test-target: HLA-B*27:03
assay-text: IEDB peptide-MHC binding, purified MHC/direct/fluorescence; filed as Kd, often an IC50 or EC50 that approximates it; bounds were set here for any values at or beyond the usual limits of such assays
setup-conditions: source organism: Mycobacterium tuberculosis str. Haarlem
endpoint-label: Kd

Entry RVACRDVEV , tested on HLA-B*27:03, has a reported Kd of ≥ 20 µM

* * *

test-target: HLA-B*57:01
assay-text: IEDB peptide-MHC binding, purified MHC/competitive/radioactivity; filed as Kd, often an IC50 or EC50 that approximates it; bounds were set here for any values at or beyond the usual limits of such assays
setup-conditions: source organism: Dengue virus 3 Sri Lanka/1266/2000
endpoint-label: pKd
Entry type: numeric. Quantity: pKd, the -log10 of concentration in molar units.

pKd reported for this sequence AAVEDEEFW : 5.96

* * *

test-target: HLA-B*39:01
assay-text: IEDB peptide-MHC binding, purified MHC/competitive/fluorescence; filed as Kd, often an IC50 or EC50 that approximates it; bounds were set here for any values at or beyond the usual limits of such assays
setup-conditions: source organism: Cryptosporidium parvum Iowa II
pKd: −log10 of the molar value.
endpoint-label: pKd

pKd reported for this sequence KLYLRPWWH : ≤ 4.70

* * *

test-target: HLA-B*15:17
assay-text: IEDB peptide-MHC binding, purified MHC/direct/fluorescence; filed as Kd, often an IC50 or EC50 that approximates it; bounds were set here for any values at or beyond the usual limits of such assays
setup-conditions: source organism: Camelpox virus M-96
pKd: −log10 of the molar value.
endpoint-label: pKd

pKd reported for this sequence EYYFRNEVF : ≤ 4.70

* * *

test-target: HLA-A*01:01
assay-text: IEDB peptide-MHC binding, purified MHC/direct/fluorescence; filed as Kd, often an IC50 or EC50 that approximates it; bounds were set here for any values at or beyond the usual limits of such assays
setup-conditions: source organism: Shigella flexneri
pKd: −log10 of the molar value.
endpoint-label: pKd

pKd reported for this sequence KTTLFHTFK : ≤ 4.70

* * *

Record form. Attribute: pKd. Fill in for each entry.
test-target: HLA-A*23:01
assay-text: IEDB peptide-MHC binding, purified MHC/competitive/radioactivity; filed as Kd, often an IC50 or EC50 that approximates it; bounds were set here for any values at or beyond the usual limits of such assays
setup-conditions: source organism: Dengue virus 2 Jamaica/1409/1983
Entry type: numeric. Quantity: pKd, the -log10 of concentration in molar units.

Entry AYTIGTTHF , tested on HLA-A*23:01, has a reported pKd of 6.90

Entry SYLAGAGLLF , tested on HLA-A*23:01, has a reported pKd of 9.15

Entry NWLNNNTQF , tested on HLA-A*23:01, has a reported pKd of 6.15

* * *

test-target: HLA-B*18:01
assay-text: IEDB peptide-MHC binding, purified MHC/direct/fluorescence; filed as Kd, often an IC50 or EC50 that approximates it; bounds were set here for any values at or beyond the usual limits of such assays
setup-conditions: source organism: Camelpox virus CMS
pKd: −log10 of the molar value.
endpoint-label: pKd

pKd reported for this sequence VIARTHTAL : ≤ 4.70

* * *

Record form. Attribute: Kd. Fill in for each entry.
test-target: HLA-A*31:01
assay-text: IEDB peptide-MHC binding, purified MHC/direct/fluorescence; filed as Kd, often an IC50 or EC50 that approximates it; bounds were set here for any values at or beyond the usual limits of such assays
setup-conditions: source organism: West Nile virus

Kd reported for this sequence TSDYINTSL : ≥ 20 µM

Kd reported for this sequence MLRKKQITV : ≥ 20 µM

* * *

test-target: HLA-A*11:01
assay-text: IEDB peptide-MHC binding, purified MHC/direct/fluorescence; filed as Kd, often an IC50 or EC50 that approximates it; bounds were set here for any values at or beyond the usual limits of such assays
setup-conditions: source organism: Bacillus anthracis str. Sterne
endpoint-label: Kd
Lab note: write values as number then unit, every time.

Kd reported for this sequence KKNHWFILK : 254 nM

* * *

test-target: HLA-C*15:02
assay-text: IEDB peptide-MHC binding, purified MHC/direct/fluorescence; filed as Kd, often an IC50 or EC50 that approximates it; bounds were set here for any values at or beyond the usual limits of such assays
setup-conditions: source organism: Campylobacter jejuni
endpoint-label: Kd (µM)
Response body: numeric value in µM, unit text excluded.

Entry HSNSEYLMF , tested on HLA-C*15:02, has a reported Kd of 0.093

* * *

test-target: HLA-A*30:01
assay-text: IEDB peptide-MHC binding, purified MHC/competitive/fluorescence; filed as Kd, often an IC50 or EC50 that approximates it; bounds were set here for any values at or beyond the usual limits of such assays
setup-conditions: source organism: Mycobacterium tuberculosis variant bovis BCG str. Pasteur 1173P2
pKd: −log10 of the molar value.
endpoint-label: pKd

Entry RVACRDVEV , tested on HLA-A*30:01, has a reported pKd of ≤ 5.30

* * *

test-target: HLA-B*46:01
assay-text: IEDB peptide-MHC binding, purified MHC/direct/fluorescence; filed as Kd, often an IC50 or EC50 that approximates it; bounds were set here for any values at or beyond the usual limits of such assays
setup-conditions: source organism: Marburg virus - Musoke, Kenya, 1980
endpoint-label: Kd

Kd reported for this sequence YHLGGIEGL : ≥ 20 µM

* * *

test-target: HLA-A*02:03
assay-text: IEDB peptide-MHC binding, purified MHC/direct/fluorescence; filed as Kd, often an IC50 or EC50 that approximates it; bounds were set here for any values at or beyond the usual limits of such assays
setup-conditions: source organism: Limestone Canyon virus
endpoint-label: Kd

Kd reported for this sequence KLKKKSAFY : ≥ 20 µM

* * *

test-target: HLA-B*51:01
assay-text: IEDB peptide-MHC binding, purified MHC/competitive/radioactivity; filed as Kd, often an IC50 or EC50 that approximates it; bounds were set here for any values at or beyond the usual limits of such assays
setup-conditions: source organism: Dengue virus 3 Martinique/1243/1999
endpoint-label: Kd

Kd reported for this sequence LPEEQDQNYV : 11900 nM

Kd reported for this sequence PPFGESNIV : 1790 nM

Kd reported for this sequence LAYVVIGIL : 1320 nM

Kd reported for this sequence VAWRTATLI : 137 nM

* * *

test-target: HLA-A*03:01
assay-text: IEDB peptide-MHC binding, purified MHC/competitive/fluorescence; filed as Kd, often an IC50 or EC50 that approximates it; bounds were set here for any values at or beyond the usual limits of such assays
setup-conditions: source organism: Escherichia coli 536
pKd: −log10 of the molar value.
endpoint-label: pKd

pKd reported for this sequence QTDNDIWFW : ≤ 4.70

* * *

test-target: HLA-A*03:01
assay-text: IEDB peptide-MHC binding, purified MHC/direct/fluorescence; filed as Kd, often an IC50 or EC50 that approximates it; bounds were set here for any values at or beyond the usual limits of such assays
setup-conditions: source organism: Yersinia pestis CA88-4125
pKd: −log10 of the molar value.
endpoint-label: pKd

pKd reported for this sequence LPEAYQWHI : ≤ 4.70

* * *

test-target: HLA-A*32:07
assay-text: IEDB peptide-MHC binding, purified MHC/competitive/fluorescence; filed as Kd, often an IC50 or EC50 that approximates it; bounds were set here for any values at or beyond the usual limits of such assays
setup-conditions: source organism: Hantaan virus 76-118
endpoint-label: Kd

Kd reported for this sequence RYRTAVCGL : 7.6 nM
